These data points were gathered from paper PMC3953333.

# system_tested: T1, nuclear SREBP-2 (nSREBP-2) (rat, UniProt Q3T1I5 1-476)
# T1 sequence: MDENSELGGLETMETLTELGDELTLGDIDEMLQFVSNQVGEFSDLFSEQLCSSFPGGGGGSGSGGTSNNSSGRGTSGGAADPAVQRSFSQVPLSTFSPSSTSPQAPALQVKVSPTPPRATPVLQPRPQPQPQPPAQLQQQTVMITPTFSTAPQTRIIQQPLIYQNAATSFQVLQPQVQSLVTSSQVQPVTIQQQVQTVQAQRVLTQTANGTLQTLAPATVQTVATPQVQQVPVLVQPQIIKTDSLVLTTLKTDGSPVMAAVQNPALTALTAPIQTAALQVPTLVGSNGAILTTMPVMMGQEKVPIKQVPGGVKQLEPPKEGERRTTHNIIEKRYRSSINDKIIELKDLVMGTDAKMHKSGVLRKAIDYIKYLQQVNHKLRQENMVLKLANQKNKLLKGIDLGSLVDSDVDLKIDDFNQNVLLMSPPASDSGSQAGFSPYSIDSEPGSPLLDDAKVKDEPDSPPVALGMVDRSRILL
# measurement_description: EMSA; EMSA with DIG-labeled annealed oligonucleotides (Roche DIG Gel Shift Kit, 2nd Generation) and TNT T7 in vitro-translated proteins; buffer, salt, pH and temperature not stated (ref 19)
# applied_conditions: protein: ivt; chain copies: 2; label: DIG end-label; 5' overhangs 4 nt (AGCT / TCGA)
parameter: binding result

Guide cases for binding result, answers given:
>  <binder>
rTPO VI mut3 (dsDNA) DNA 1: AGCTCAGGCCTCTCCTCAGACTAATCCTCCCAAGT DNA 2: TCGAACTTGGGAGGATTAGTCTGAGGAGAGGCCTG

>  <binding result>
binds

$$$$
>  <binder>
rTPO III mut1 (dsDNA) DNA 1: AGCTGATAATCAGAAAGTCAGCAGTTCTAG DNA 2: TCGACTAGAACTGCTGACTTTCTGATTATC

>  <binding result>
binds

$$$$
>  <binder>
rTPO VI mut5 (dsDNA) DNA 1: AGCTCAGGCGGAAACTCAGGTGGGTCCTCCCAAGT DNA 2: TCGAACTTGGGAGGACCCACCTGAGTTTCCGCCTG

>  <binding result>
binds

$$$$
>  <binder>
rTPO II (dsDNA) DNA 1: AGCTTTGCAGTGGGGAAGAGATAA DNA 2: TCGATTATCTCTTCCCCACTGCAA

>  <binding result>
no binding

$$$$
>  <binder>
rTPO VI (dsDNA) DNA 1: AGCTCAGGCCTCTCCTCAGGTGGGTCCTCCCAAGT DNA 2: TCGAACTTGGGAGGACCCACCTGAGGAGAGGCCTG

>  <binding result>
binds

$$$$

The following binders each have a reported value; give each one's binding result.
1. rTPO VI mut6 (dsDNA) DNA 1: AGCTTGTAACTCTCCTCAGGTGGGTCCTCCCAAGT DNA 2: TCGAACTTGGGAGGACCCACCTGAGGAGAGTTACA
2. rTPO III mut5 (dsDNA) DNA 1: AGCTTCGTTTCAGAAAGTCAGCAGAATACT DNA 2: TCGAAGTATTCTGCTGACTTTCTGAAACGA
3. rTPO III mut2 (dsDNA) DNA 1: AGCTGATAATCAGAAAGTCGTATTAATACT DNA 2: TCGAAGTATTAATACGACTTTCTGATTATC
4. rTPO III mut4 (dsDNA) DNA 1: AGCTGATAAGATTCAAGTCAGCAGAATACT DNA 2: TCGAAGTATTCTGCTGACTTGAATCTTATC

["binds", "binds", "no binding", "binds"]

Provide the reported binding result of each entry below, same order.
1. rTPO VI mut1 (dsDNA) DNA 1: AGCTCAGGCCTCTCCTCAGGTGGGTCCTCATGGCT DNA 2: TCGAAGCCATGAGGACCCACCTGAGGAGAGGCCTG
2. rTPO III mut3 (dsDNA) DNA 1: AGCTGATAATCAGATTCGAAGCAGAATACT DNA 2: TCGAAGTATTCTGCTTCGAATCTGATTATC

1. binds
2. no binding
